# tested on: hGIPR (Homo sapiens, UniProt P48546)
# Sequence (P48546 22-466): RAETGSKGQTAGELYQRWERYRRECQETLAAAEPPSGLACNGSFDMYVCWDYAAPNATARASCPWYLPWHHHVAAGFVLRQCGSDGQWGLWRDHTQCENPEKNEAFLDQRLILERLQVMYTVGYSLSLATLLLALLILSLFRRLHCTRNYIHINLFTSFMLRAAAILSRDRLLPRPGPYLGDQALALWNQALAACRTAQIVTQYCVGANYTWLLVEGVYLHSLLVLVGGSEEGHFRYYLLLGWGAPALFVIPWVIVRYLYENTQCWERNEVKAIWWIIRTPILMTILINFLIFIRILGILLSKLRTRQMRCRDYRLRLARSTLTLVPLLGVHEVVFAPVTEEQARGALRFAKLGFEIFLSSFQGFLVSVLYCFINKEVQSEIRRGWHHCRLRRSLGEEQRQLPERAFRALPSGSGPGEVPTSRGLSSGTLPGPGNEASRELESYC
# test summary: Functional cAMP activity in the presence of 1% HSA
# Assay type: cell-based
# details: read-out: cAMP Rel EC50, hGIPR
pEC50: −log10 of the molar value. Starred links: 1 amine or outer side, 2 acyl side, 3 side chain; linkers in the order of their positions; H or OH if unused. Non-standard residues stand in square brackets, D forms with d. Groups on a side chain read outwards from the residue. No end group written: not given here. *: point of attachment. C20 diacid = O=C(O)CCCCCCCCCCCCCCCCCCC(=O)*; C18 diacid = O=C(O)CCCCCCCCCCCCCCCCC(=O)*; Phe(4-CN) = N#Cc1ccc(C[C@H](N)C(=O)O)cc1; αMePhe(2-F) = C[C@](N)(Cc1ccccc1F)C(=O)O; γGlu = O=C(O)[C@H](CCC(=O)[*:2])N[*:1]; αMe4Pal = C[C@](N)(Cc1ccncc1)C(=O)O; αMeY = C[C@](N)(Cc1ccc(O)cc1)C(=O)O; αMeF = C[C@](N)(Cc1ccccc1)C(=O)O; 4Pal = N[C@@H](Cc1ccncc1)C(=O)O; αMeL = CC(C)C[C@](C)(N)C(=O)O; αMeS = C[C@](N)(CO)C(=O)O; Orn = NCCC[C@H](N)C(=O)O; AEEA = NCCOCCOCC(=O)O; Aib = CC(C)(N)C(=O)O
# maps each entry to its pEC50
reported endpoint: pEC50

substance	val
H-Y[Aib]QGT[αMePhe(2-F)]TSD[4Pal][αMeS]I[αMeL]LD[Orn]K([AEEA-γGlu-γGlu-C18 diacid])AQ[αMe4Pal]EFI[dE][αMeY]LIEGGPSSGAPPPSGSE-NH2 [Example 1178]	9.26
H-Y[Aib]QGT[αMePhe(2-F)]TSD[4Pal][αMeS]I[αMeL]LD[Orn]K([AEEA-γGlu-C18 diacid])AQ[αMe4Pal]EFI[dE][αMeY]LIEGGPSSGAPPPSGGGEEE-NH2 [Example 1215]	9.03
H-Y[Aib]QGTFTSDFSK[αMeL]LDKK([AEEA-γGlu-C20 diacid])AQ[Aib]AFIEWLLAGGPSSGEPPPSEG-NH2 [Example 20]	7.37
H-Y[Aib]QGT[αMePhe(2-F)]TSD[4Pal]SI[αMeL]LD[Orn]K([AEEA-γGlu-C18 diacid])AQ[αMe4Pal]EFI[dE][αMeY]LLEGGPSSGAPPPSGE-NH2 [Example 615]	9.02
H-Y[Aib]QGTFTSDFS[Orn][αMeL]LDKK([AEEA-γGlu-C18 diacid])AQ[Aib]AFIEYLLE[Aib]G[4Pal]SSGAPPPSGE-NH2 [Example 248]	7.97
Y[Aib]QGT[αMePhe(2-F)]TSD[4Pal][αMeS]I[αMeL]LD[Orn]QAQ[αMe4Pal]EFI[dE][αMeY]LIEGGPSSGAPPPSGGGE-NH2 [Example 1234]	10.96
Y[Aib]QGTFTSDFS[Orn][αMeL]LDKK([AEEA-AEEA-γGlu-C18 diacid])AQ[Aib]AFIEYLLE[dA]GPSSGHPPPSGH-NH2 [Example 255]	7.66
H-Y[Aib]QGTFTSDFSK[αMeL]LDKK([AEEA-γGlu-C20 diacid])AQ[Aib]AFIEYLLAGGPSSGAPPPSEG-NH2 [Example 10]	7.37
Y[Aib]QGT[αMeF]TSD[4Pal][αMeS]I[αMeL]LD[Orn]K([AEEA-γGlu-C18 diacid])AQ[αMe4Pal]EFI[dE][αMeY]LIEGGPSSGEPPPSGGGE-NH2 [Example 1169]	8.93
H-Y[Aib]QGTFTSD[4Pal]SQ[αMeL]LDKK([γGlu-γGlu-C18 diacid])AQ[αMe4Pal]AFIEYLIE[Aib]GPSSGAPPPSGSE-NH2 [Example 890]	7.85
H-Y[Aib]QGT[αMePhe(2-F)]TSD[4Pal][αMeS]I[αMeL]LD[Orn]K([AEEA-γGlu-γGlu-C18 diacid])AQ[αMe4Pal]EFI[dE][αMeY]LIEGGPSSGEPPPSGSE-NH2 [Example 1179]	9.24
H-Y[Aib]QGT[αMePhe(2-F)]TSD[4Pal][αMeS]I[αMeL]LD[Orn]K([AEEA-γGlu-C18 diacid])AQ[Aib][Orn]FI[dE]YLIEGGPSSGEPPPSGTEE-NH2 [Example 533]	8.49
Y[Aib]QGT[αMePhe(2-F)]TSD[4Pal][αMeS]ILLD[Orn]K([γGlu-γGlu-C18 diacid])AQ[Aib][Orn]FI[dE]YLIEGGPSSGEPPPEGGEE-NH2 [Example 605]	8.17
H-Y[Aib]QGT[αMePhe(2-F)]TSD[4Pal][αMeS]I[αMeL]LD[Orn]K([AEEA-γGlu-C18 diacid])AQ[αMe4Pal]EFI[dE][αMeY]LIEGGPSSGAPPPEGGGE-NH2 [Example 759]	8.98
H-Y[Aib]QGT[αMePhe(2-F)]TSD[4Pal][αMeS]I[αMeL]LD[Orn]K([AEEA-γGlu-C18 diacid])AQ[αMe4Pal]EFI[dE][αMeY]LIEGGPSSGAPPPTGE-NH2 [Example 1142]	9.13
H-Y[Aib]QGT[αMePhe(2-F)]TSD[Phe(4-CN)]SKLLDKIAQK([AEEA-γGlu-C20 diacid])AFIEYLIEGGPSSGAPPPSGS-NH2 [Example 363]	7.04
H-H[Aib]QGT[αMePhe(2-F)]TSDYSILLDKK([AEEA-γGlu-C20 diacid])AA[Aib]AFIEYLIEAGPSSGEPPPSEG-NH2 [Example 298]	7.38
H-Y[Aib]QGT[αMePhe(2-F)]TSD[4Pal][αMeS]ILLD[Orn]K([γGlu-γGlu-C18 diacid])AQ[Aib][Orn]FI[dE]YLIEGGPSSGEPPPEGTEE-NH2 [Example 556]	8.26
H-Y[Aib]QGTFTSDFSK[αMeL]LDKK([AEEA-γGlu-C20 diacid])AQ[Aib]AFIEYLLAGGPSSGEPPPSSG-NH2 [Example 7]	7.30
H-Y[Aib]QGTFTSDFS[Orn][αMeL]LDKK([AEEA-γGlu-C18 diacid])AQ[Aib]AFIEWLLEGGSSSGAPPPSGH-NH2 [Example 270]	7.44
Y[Aib]QGTFTSDFSK[αMeL]LDKK([AEEA-γGlu-C18 diacid])AQ[Aib]AFIEYLIE[Aib]GPSSGAPPPSGS-NH2 [Example 797]	7.78
